Molecular target: T1, Human SIRPαV1 (NP_542970.1), Extracellular Domain + His-Tag (human, UniProt P78324 31-373)
T1 construct: also called huSIRPαV1; hSIRPαV1; not shown: His-Tag
T1 sequence (P78324 other isoform, or with tags, fused parts or gaps): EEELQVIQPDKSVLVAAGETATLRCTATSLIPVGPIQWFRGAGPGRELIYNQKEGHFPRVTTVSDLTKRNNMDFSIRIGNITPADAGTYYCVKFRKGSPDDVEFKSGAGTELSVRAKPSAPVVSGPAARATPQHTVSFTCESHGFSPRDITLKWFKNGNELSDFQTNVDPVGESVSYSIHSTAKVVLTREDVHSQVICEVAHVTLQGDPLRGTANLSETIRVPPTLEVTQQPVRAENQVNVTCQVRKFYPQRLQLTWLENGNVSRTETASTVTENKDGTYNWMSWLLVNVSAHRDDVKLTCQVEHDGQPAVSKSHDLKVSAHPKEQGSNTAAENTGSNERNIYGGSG
Assay: SPR, antibody captured on Protein A/G, ECD-His analyte, 1:1 fit
measured endpoint: pKd
Answer as the number alone; pKd is minus log10 of concentration in mol/L.

Problem: Quote pKd reported for Antibody E11 (antibody, human IgG1, kappa, L234A L235A, V domains shown) VH: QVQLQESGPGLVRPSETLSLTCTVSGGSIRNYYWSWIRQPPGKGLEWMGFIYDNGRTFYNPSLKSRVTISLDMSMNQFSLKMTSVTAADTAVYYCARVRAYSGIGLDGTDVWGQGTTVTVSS VL: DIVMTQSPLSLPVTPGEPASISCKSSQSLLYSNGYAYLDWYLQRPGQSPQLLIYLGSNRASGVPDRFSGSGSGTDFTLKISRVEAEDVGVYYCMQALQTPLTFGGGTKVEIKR please.
Solution: 8.85

Pending binder:
Problem: Quote pKd reported for Antibody E3 (antibody, human IgG1, kappa, L234A L235A, V domains shown) VH: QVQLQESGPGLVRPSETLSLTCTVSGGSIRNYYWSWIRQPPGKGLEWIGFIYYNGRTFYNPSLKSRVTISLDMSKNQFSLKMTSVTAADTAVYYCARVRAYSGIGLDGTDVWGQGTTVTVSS VL: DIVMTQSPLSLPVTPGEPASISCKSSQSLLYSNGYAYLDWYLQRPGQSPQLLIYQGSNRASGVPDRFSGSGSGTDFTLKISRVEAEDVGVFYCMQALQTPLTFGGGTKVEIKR please.
Solution: 9.02

Numbers sourced from patent US20230012273A1.
